Biological target: human 5-hydroxytryptamine-2C (h5-HT2C) receptor (Homo sapiens)
Sequence (P28335 33-458): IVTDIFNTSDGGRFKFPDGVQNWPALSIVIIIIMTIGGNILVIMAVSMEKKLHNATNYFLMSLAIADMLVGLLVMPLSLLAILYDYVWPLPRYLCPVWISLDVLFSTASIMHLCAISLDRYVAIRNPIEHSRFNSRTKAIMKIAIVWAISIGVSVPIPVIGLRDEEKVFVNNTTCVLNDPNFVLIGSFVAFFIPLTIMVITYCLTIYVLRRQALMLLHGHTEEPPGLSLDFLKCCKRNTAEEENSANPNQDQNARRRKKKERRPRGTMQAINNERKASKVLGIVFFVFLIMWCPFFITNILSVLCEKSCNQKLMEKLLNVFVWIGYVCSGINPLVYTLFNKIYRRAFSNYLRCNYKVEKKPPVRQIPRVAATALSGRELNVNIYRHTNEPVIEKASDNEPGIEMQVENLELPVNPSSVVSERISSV
propertyName: Kd (pM)
Return type: number; implicit unit pM.

Q. Which Kd reading was recorded for the compound COc1cc(CC(C)N)c(OC)cc1I (stereo not shown) [[125I] DOI, reference compound] ?
A. 400

---

Molecular target: human 5-hydroxytryptamine-2C (h5-HT2C) receptor (Homo sapiens)
Construct: expressed in transfected cells; host or cells: CHO (Chinese Hamster Ovary) cells; membrane preparation
Assay: [125I]DOI binding to membranes of CHO cells expressing the h5-HT2C receptor
Settings: reference compounds; 95% confidence interval in parentheses; [125I]DOI radioligand, CHO cell membranes; read-out: Ki
propertyName: Ki (nM)
Return type: number; implicit unit nM.

Q. Which Ki reading was recorded for the compound CSc1ccc2c(c1)C(N1CCN(C)CC1)Cc1ccccc1S2 (stereo not shown) [Methiothepin, reference compound] ?
A. 4.6

---

Biological target: human 5-HT2C receptor (Homo sapiens)
Assay: calcium mobilization (FLIPR) in CHO cells stably expressing the human 5-HT2C receptor
Settings: calcium mobilization, CHO cells, FLIPR; read-out: 5-HT2C Function EC50
propertyName: EC50
Note: state the figure and append the unit.

Q. Which EC50 reading was recorded for the compound NCC1CSc2cc(F)cc(-c3c(Cl)cccc3Cl)c2O1 (stereo not shown) ?
A. 356 nM

---

Target: human 5-hydroxytryptamine-2C (h5-HT2C) receptor (Homo sapiens, UniProt P28335)
Construct: expressed in transfected cells; host or cells: CHO (Chinese Hamster Ovary) cells; membrane preparation
Sequence (P28335 33-458): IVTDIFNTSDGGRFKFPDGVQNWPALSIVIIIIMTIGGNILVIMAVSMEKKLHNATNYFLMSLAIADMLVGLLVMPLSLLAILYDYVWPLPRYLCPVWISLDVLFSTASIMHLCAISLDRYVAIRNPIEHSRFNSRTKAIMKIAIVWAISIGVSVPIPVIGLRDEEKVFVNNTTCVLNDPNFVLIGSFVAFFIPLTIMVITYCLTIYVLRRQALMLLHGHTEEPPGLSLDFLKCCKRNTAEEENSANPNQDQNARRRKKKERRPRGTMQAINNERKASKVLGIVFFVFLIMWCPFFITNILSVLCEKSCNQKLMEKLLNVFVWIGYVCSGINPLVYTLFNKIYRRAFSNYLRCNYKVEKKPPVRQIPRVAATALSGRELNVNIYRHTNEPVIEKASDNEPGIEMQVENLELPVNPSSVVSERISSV
Test: [125I]DOI binding to membranes of CHO cells expressing the h5-HT2C receptor
Conditions: read-out: 5-HT2C Binding Ki avg
In this section we review reported Ki values for a set of compounds.
Return type: number; implicit unit nM.

// worked examples, Ki included
| compound | testSystem | Ki, nM |
| --- | --- | --- |
| NCC1C[S+]([O-])c2cc(F)cc(-c3c(Cl)cccc3Cl)c2O1 (stereo not drawn) | human 5-hydroxytryptamine-2C (h5-HT2C) receptor (Homo sapiens, UniProt P28335) | 388 |
| NCC1CS(=O)(=O)c2cc(F)cc(-c3c(Cl)cccc3Cl)c2O1 (stereo not drawn) | human 5-hydroxytryptamine-2C (h5-HT2C) receptor (Homo sapiens, UniProt P28335) | 11.7 |

Q. Query the reported Ki for human 5-hydroxytryptamine-2C (h5-HT2C) receptor (Homo sapiens, UniProt P28335); item: NCC1CSc2cc(F)cc(-c3c(Cl)cccc3Cl)c2O1 (stereo not drawn)
A. 0.535
